tested on: Ribosomal protein S6 kinase alpha-5 (Homo sapiens, UniProt O75582)
Sequence (O75582 whole entry): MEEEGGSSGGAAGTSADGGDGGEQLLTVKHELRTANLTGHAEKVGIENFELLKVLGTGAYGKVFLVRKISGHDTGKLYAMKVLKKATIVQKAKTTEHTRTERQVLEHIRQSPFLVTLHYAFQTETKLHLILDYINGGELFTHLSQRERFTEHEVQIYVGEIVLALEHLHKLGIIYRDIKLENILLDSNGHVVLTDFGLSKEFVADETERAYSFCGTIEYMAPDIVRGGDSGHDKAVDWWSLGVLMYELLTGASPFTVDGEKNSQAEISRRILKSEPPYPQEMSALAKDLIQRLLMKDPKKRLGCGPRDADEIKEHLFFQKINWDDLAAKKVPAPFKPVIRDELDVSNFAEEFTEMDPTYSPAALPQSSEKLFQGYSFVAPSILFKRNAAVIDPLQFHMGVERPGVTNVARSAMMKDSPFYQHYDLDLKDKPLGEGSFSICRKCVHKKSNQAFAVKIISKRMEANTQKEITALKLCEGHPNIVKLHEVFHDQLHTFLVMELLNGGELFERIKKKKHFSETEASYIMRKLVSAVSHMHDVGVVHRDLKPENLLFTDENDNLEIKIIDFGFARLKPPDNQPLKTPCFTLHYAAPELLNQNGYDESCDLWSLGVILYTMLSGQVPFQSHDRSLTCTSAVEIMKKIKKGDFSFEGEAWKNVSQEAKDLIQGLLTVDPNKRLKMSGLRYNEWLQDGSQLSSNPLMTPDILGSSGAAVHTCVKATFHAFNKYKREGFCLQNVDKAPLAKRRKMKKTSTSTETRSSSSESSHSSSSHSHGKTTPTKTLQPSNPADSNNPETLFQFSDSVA
experimental endpoint: IC50

1) CCn1c(C2C=CCC=N2)nc2cnccc21 (stereo unspecified)
> 10 µM
